assay: BET inhibitor-based combinations targeting novel dependencies in MECOM-rearranged (r) AML: SET-2 cell line (AID 2202231); conditions: SET-2 AML cells viability, CellTiter-Glo luminescence, 48 h; hits give low values, concentration not given here;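 further: plate controls were DMSO treated cells for no effect and wells without cells for full effect; nearly all actives have a fitted effect of over 35% in size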
Inconclusive results are not listed. Non-standard residues stand in square brackets, D forms with d. Residues, ends and D or L forms follow the SMILES beside them.
Item-by-item account of viability
measured_quantity: viability (%)

>  <molecule>
COc1ccc(Oc2cc(NCCC(F)(F)F)c3ncc(-c4ccc(C(=O)NC5CC5)c(C)c4)n3n2)c(F)c1F

>  <unit_spec>
%

>  <reported_result>
80.2

$$$$
>  <molecule>
Cn1cc(/C=C2\C(=O)Nc3cccnc32)c2ccccc21

>  <unit_spec>
%

>  <reported_result>
86.8

$$$$
>  <molecule>
Cc1ccc(NC(=O)Nc2nnc(Sc3ncnc4cc(OCCCN5CCOCC5)ccc34)s2)cc1

>  <unit_spec>
%

>  <reported_result>
111

$$$$
>  <molecule>
CN(C)Cc1cccc(N=C(c2ccccc2)c2c(O)[nH]c3cc(C(N)=O)ccc23)c1

>  <unit_spec>
%

>  <reported_result>
78

$$$$
>  <molecule>
Cc1ccc(-n2c(C)cc(-c3nnc4n3CCCCC4)c2C)cc1

>  <unit_spec>
%

>  <reported_result>
104

$$$$
>  <molecule>
Cc1cnc(NC(=O)c2cc(Oc3cnc(C(=O)N(C)C)nc3)c3cc(C)oc3c2)cn1

>  <unit_spec>
%

>  <reported_result>
126

$$$$
>  <molecule>
Cn1c(=O)c2c(ncn2CC2OCCO2)n(C)c1=O

>  <unit_spec>
%

>  <reported_result>
103

$$$$
>  <molecule>
CCS(=O)(=O)N1CCC(C(C)n2c(C)c(C(=O)NCc3c(OC)cc(C)[nH]c3=O)c3ccccc32)CC1 (stereo unspecified)

>  <unit_spec>
%

>  <reported_result>
108

$$$$
>  <molecule>
CC(C)C[C@@H]1NC(=O)[C@@H](C(C)C)NC(=O)[C@@H]2CCCN2C(=O)[C@@H](CC(=O)O)NC(=O)[C@@H](Cc2c[nH]c3ccccc23)NC1=O (cyclo(L[dW][dD]P[dV]))

>  <unit_spec>
%

>  <reported_result>
110

$$$$
>  <molecule>
Nc1ccn([C@@H]2O[C@H](CO)[C@@H](O)[C@H]2O)c(=O)n1

>  <unit_spec>
%

>  <reported_result>
117

$$$$
>  <molecule>
COc1ccc(Cl)c(Nc2nc3ccccc3nc2NS(=O)(=O)c2cccc(NC(=O)C(C)(C)N)c2)c1

>  <unit_spec>
%

>  <reported_result>
103

$$$$
>  <molecule>
C=CC(=O)N[C@H]1CCOC[C@H]1Nc1ncc2cc(-c3c(Cl)c(OC)cc(OC)c3Cl)ccc2n1

>  <unit_spec>
%

>  <reported_result>
104

$$$$
>  <molecule>
C[C@H](NC(=O)CCC(F)(F)F)C(=O)N[C@@H]1C(=O)N(CCO)c2ncccc2-c2ccccc21

>  <unit_spec>
%

>  <reported_result>
95.9

$$$$
>  <molecule>
NS(=O)(=O)Oc1ccc2c3c(c(=O)oc2c1)CCCCC3

>  <unit_spec>
%

>  <reported_result>
105

$$$$
>  <molecule>
CC1Cc2ccccc2N1C(=O)Cc1nc(N2CCOCC2)cc(=O)[nH]1 (stereo unspecified)

>  <unit_spec>
%

>  <reported_result>
99.9

$$$$
>  <molecule>
COc1cc2nccc(Oc3ccc(NC(=O)c4cn(C(C)C)c(=O)n(-c5ccc(F)cc5)c4=O)cc3F)c2cc1OC

>  <unit_spec>
%

>  <reported_result>
113

$$$$
>  <molecule>
COC(=O)/C=C/C(=O)OC

>  <unit_spec>
%

>  <reported_result>
117

$$$$
>  <molecule>
CC(C)(S)[C@@H](N)C(=O)O

>  <unit_spec>
%

>  <reported_result>
116

$$$$
>  <molecule>
CCOc1cc(/C=C2/C(=O)N(c3ccccc3)N=C2C)cc(Cl)c1OCC(=O)OC

>  <unit_spec>
%

>  <reported_result>
103

$$$$
>  <molecule>
CC(C)(O)c1coc(S(=O)(=O)NC(=O)Nc2c3c(cc4c2CCC4)CCC3)c1

>  <unit_spec>
%

>  <reported_result>
126

$$$$
>  <molecule>
CN1C(N)=N[C@](C)(c2cc(NC(=O)c3ccc(F)cn3)ccc2F)CS1(=O)=O

>  <unit_spec>
%

>  <reported_result>
121

$$$$
>  <molecule>
Cc1cnc(-c2ccccc2C(C)C)nc1NCc1ccc(-n2ccnn2)cc1

>  <unit_spec>
%

>  <reported_result>
86.2

$$$$
>  <molecule>
N#Cc1ccnc(N2C(=O)CC[C@H]2C(=O)N(c2cncc(F)c2)C(C(=O)NC2CC(F)(F)C2)c2ccccc2Cl)c1 (stereo partly specified)

>  <unit_spec>
%

>  <reported_result>
91.5

$$$$
>  <molecule>
c1ccc2c(Cc3c[nH]c4ccccc34)c[nH]c2c1

>  <unit_spec>
%

>  <reported_result>
103

$$$$
>  <molecule>
C=C(c1ccc(C(=O)O)cc1)c1cc2c(cc1C)C(C)(C)CCC2(C)C

>  <unit_spec>
%

>  <reported_result>
115

$$$$
>  <molecule>
O=C(Nc1cccnc1)c1cc(-c2ccnc(F)c2)ccc1OCc1ccccc1

>  <unit_spec>
%

>  <reported_result>
121

$$$$
>  <molecule>
CCOC(=O)c1ccc(C#Cc2ccc3c(c2)C(C)(C)CCS3)nc1

>  <unit_spec>
%

>  <reported_result>
106

$$$$
>  <molecule>
C[C@@H]1C(=O)OC2[C@H](O)[C@]34[C@H]5C[C@@H](C(C)(C)C)[C@]36[C@@H](OC(=O)[C@@H]6O)O[C@@]4(C(=O)O5)[C@]21O (stereo partly specified)

>  <unit_spec>
%

>  <reported_result>
115

$$$$
>  <molecule>
CC1(N)CCN(c2cccnc2NC(=O)c2nc(-c3ncccc3C(F)(F)F)cnc2N)CC1

>  <unit_spec>
%

>  <reported_result>
101

$$$$
>  <molecule>
CC[C@H](C)C(=O)O[C@H]1C[C@H](O)C=C2C=C[C@H](C)[C@H](CC[C@@H](O)C[C@@H](O)CC(=O)O)[C@H]21

>  <unit_spec>
%

>  <reported_result>
113

$$$$
>  <molecule>
C[C@@H]1N=C(N)NC(N(C)C)=N1

>  <unit_spec>
%

>  <reported_result>
102

$$$$
>  <molecule>
CC(C)Cc1ccc([C@@H](C)C(=O)NS(C)(=O)=O)cc1

>  <unit_spec>
%

>  <reported_result>
112

$$$$
>  <molecule>
NC1=N[C@@]2(c3cc(NC(=O)c4ccc(F)cn4)ccc3F)COC[C@H]2CS1

>  <unit_spec>
%

>  <reported_result>
112

$$$$
>  <molecule>
C[C@@H](O)[C@@H]1NC(=O)[C@H](CCCCN)NC(=O)[C@@H](Cc2c[nH]c3ccccc23)NC(=O)[C@H](Cc2ccccc2)NC(=O)[C@@H](NC(=O)[C@H](N)Cc2ccccc2)CSSC[C@@H](C(=O)N[C@H](CO)[C@@H](C)O)NC1=O

>  <unit_spec>
%

>  <reported_result>
114

$$$$
>  <molecule>
CC(=O)N[C@H]1CSSC[C@@H](C(N)=O)NC(=O)[C@H](C(C)C)NC(=O)[C@H](C)NC(=O)[C@H](Cc2cnc[nH]2)NC1=O

>  <unit_spec>
%

>  <reported_result>
113

$$$$
>  <molecule>
O=C(Nc1cccc(C(F)(F)F)c1)c1cccc2cc(Oc3cc(CO)ncn3)ccc12

>  <unit_spec>
%

>  <reported_result>
103

$$$$

====

assay: BET inhibitor-based combinations targeting novel dependencies in MECOM-rearranged (r) AML: HNT-34 cell line (AID 2202234); details: HNT-34 AML viability, CellTiter-Glo luminescence, 48 h; series mostly up to 46 µM; further: nearly all actives have a fitted effect of over 35% in size; further: potency means the concentration at half of the fitted maximal effect
Inconclusive results are not listed. The source made the active and inactive calls. The call rests on the fitted dose curve; in most records, active means well fitted inhibition curve with a large enough effect; inconclusive means small, poorly fitted or top-dose-only effect; inactive means no such curve, though single readings can be large or run the other way. Non-standard residues stand in square brackets, D forms with d. Residues, ends and D or L forms follow the SMILES beside them. *: point of attachment. Benzoyl(4-tBu) = CC(C)(C)c1ccc(C(=O)*)cc1; Lys(Et2) = CCN(CC)CCCC[C@H](N)C(=O)O

>  <molecule>
CCN(CC)CCCC[C@H](NC(=O)[C@H](CC(C)C)NC(=O)[C@H](C)NC(=O)[C@H](Cc1ccccc1)NC(=O)c1ccc(C(C)(C)C)cc1)C(=O)N[C@@H](CO)C(=O)OC ({Benzoyl(4-tBu)}-FAL[Lys(Et2)]S-OMe)

>  <Potency>
inactive

$$$$
>  <molecule>
C=CC(=O)Nc1ccc2ncnc(Nc3ccc(OCc4cccc(F)c4)c(Cl)c3)c2c1

>  <Potency>
6.61 µM (active)

$$$$
>  <molecule>
O=C(NO)c1cnc(NC2(c3ccccc3)CC2)nc1

>  <Potency>
6.61 µM (active)

$$$$
>  <molecule>
O=c1oc2cc(O)ccc2s1

>  <Potency>
inactive

$$$$
>  <molecule>
C=CC(=O)N1CC/C(=C\c2ccc(F)c([N+](=O)[O-])c2)C(=O)/C(=C/c2ccc(F)c([N+](=O)[O-])c2)C1

>  <Potency>
0.186 µM (active)

$$$$
>  <molecule>
O=C(O)CCNc1cc(N2CCc3ccccc3CC2)nc(-c2cccnc2)n1

>  <Potency>
inactive

$$$$
>  <molecule>
Cc1ccc(Nc2cc(N[C@@H]3CCCC[C@@H]3N)nnc2C(N)=O)nc1C

>  <Potency>
16.6 µM (active)

$$$$
>  <molecule>
O=C1NC(=O)/C(=C/c2ccc3nccc(-c4ccncc4)c3c2)S1

>  <Potency>
1.05 µM (active)

$$$$
>  <molecule>
CNC(=O)c1c(C)oc2cc(Oc3ncnc4cc(OC)c(OC)cc34)ccc12

>  <Potency>
inactive

$$$$
